- methodNotes: CCTE_Shafer_MEA_dev_firing_rate_mean: CCTE's Neural Network Formation Assay for Mean Firing Rate, Shafer Lab (AID 2284031);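 further: AUC of well mean spike rate recorded on DIV 5 7 9 and 12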
The source made the active and inactive calls. How the source made its calls: active means hit-call score of the fitted dose curve at least 0.9, where 1 is the maximum; inactive means score below 0.9.
Form entry, call: pick from active, inactive

Prompt line: // param item: CCOP(=S)(OCC)Oc1ccc2c(C)c(Cl)c(=O)oc2c1 ; yields the recorded call
Response line: active

Prompt line: Give the logged outcome of this assay for the following compound: CCCSP(=O)(OCC)SCCC
Response line: inactive

Prompt line: Status in this test for CN1COCN(Cc2cnc(Cl)s2)C1=N[N+](=O)[O-] ?
Response line: inactive

Prompt line: Answer briefly: the call reported for CCCSP(=O)(OCC)Oc1ccc(Br)cc1Cl (stereo not drawn) in this assay.
Response line: inactive

Prompt line: Could you please tell me the result logged for C[Si](Cn1cncn1)(c1ccc(F)cc1)c1ccc(F)cc1 in this assay?
Response line: inactive

Prompt line: I'd appreciate the recorded outcome for CC(=NC#N)N(C)Cc1ccc(Cl)nc1 from this test.
Response line: inactive

Prompt line: Which result was noted for this compound in the test: O=[N+]([O-])c1cc(C(F)(F)F)c(Cl)c([N+](=O)[O-])c1Nc1ncc(C(F)(F)F)cc1Cl
Response line: active

Prompt line: Recorded test call requested for CSC1=N[C@@](C)(c2ccccc2)C(=O)N1Nc1ccccc1
Response line: inactive

Prompt line: What classification did CC(C)=CC1C(C(=O)OCN2C(=O)C3=C(CCCC3)C2=O)C1(C)C (stereo not drawn) end up with in this test?
Response line: inactive

Prompt line: Which outcome did this test record for the compound COP(=O)(OC)C(O)C(Cl)(Cl)Cl (stereo not drawn) ?
Response line: inactive

Prompt line: Query: recorded result category for C#CCC1=C(C)C(OC(=O)C2C(C=C(C)C)C2(C)C)CC1=O (stereo not drawn) in this test
Response line: inactive

Prompt line: What did this assay record as the result for CN(C)[C@@H]1C(=O)C(C(N)=O)=C(O)[C@@]2(O)C(=O)C3=C(O)c4c(O)cccc4[C@@](C)(O)[C@H]3[C@H](O)[C@@H]12 ?
Response line: inactive

Prompt line: Write down the call the test reported for this compound. Item: CCOP(=S)(OCC)OC(Cl)C(Cl)(Cl)Cl (stereo not drawn)
Response line: active

====

- methodNotes: ATG_SREBP_CIS: Attagene CIS-FACTORIAL HepG2 Assay for human Sterol Regulatory Element Binding (SREBP) (AID 2282962)
- details: HepG2 Attagene cis-factorial SREBP reporter, mRNA; actives raise or lower the signal
The source made the active and inactive calls. The calls were made as follows: active = hit-call score of the fitted dose curve at least 0.9, where 1 is the maximum; inactive = score below 0.9.
Mark one answer only. Choices: TRUE (active), FALSE (inactive)

Prompt line: Could you please tell me the result logged for CCOC(=O)CC(SP(=O)(OC)OC)C(=O)OCC (configuration not stated) in this assay?
Response line: FALSE

Prompt line: Each compound tested received a call. Report the one for CCOP(=S)(OCC)Oc1ccc2c(C)c(Cl)c(=O)oc2c1 .
Response line: FALSE

Prompt line: Just curious, what result did CNC(=O)ON=C(C)SC get here?
Response line: FALSE

Prompt line: Assay result, entry CCOP(=S)(Oc1cnc(C(C)(C)C)nc1)OC(C)C (configuration not stated) — outcome?
Response line: TRUE

Prompt line: Given Nc1nc(N)nc(NC2CC2)n1 , state the outcome it received in this test.
Response line: FALSE

Prompt line: What classification did CCOP(=S)(OCC)Oc1ccc([N+](=O)[O-])cc1 end up with in this test?
Response line: TRUE

Prompt line: Dear all, I need the recorded test outcome for COP(=O)(NC(C)=O)SC (configuration not stated) , thank you.
Response line: FALSE

Prompt line: Recorded test outcome, item CCCOCC(=Nc1ccc(Cl)cc1C(F)(F)F)n1ccnc1
Response line: TRUE

Prompt line: For CCCCN(CC)c1c([N+](=O)[O-])cc(C(F)(F)F)cc1[N+](=O)[O-] , what call appears in the results of this test?
Response line: FALSE

Prompt line: Assay outcome for Cc1cc(C2CC2)nc(Nc2ccccc2)n1 : what was it?
Response line: TRUE

Prompt line: What outcome does the record of this test show for CCOP(=O)(OCC)Oc1cc(C)nc(C(C)C)n1 ?
Response line: FALSE

Prompt line: How did this test come out for CC[C@H](C)[C@H]1O[C@]2(C=C[C@@H]1C)C[C@@H]1C[C@@H](C/C=C(\C)[C@@H](O[C@H]3C[C@H](OC)[C@@H](O[C@H]4C[C@H](OC)[C@@H](NC)[C@H](C)O4)[C@H](C)O3)[C@@H](C)/C=C/C=C3\CO[C@@H]4[C@H](O)C(C)=C[C@@H](C(=O)O1)[C@]34O)O2 ?
Response line: FALSE

====

- Read-out: Glutathione S-Transferase (GSTA2), GSTA2 (gene 2939)
- methodNotes: LTEA_HepaRG_GSTA2: Life Technologies and Expression Analysis (LTEA) Assay for Glutathione S-Transferase (GSTA2) using HepaRG (AID 2283497)
- details: mRNA level, 48 h; actives raise or lower the signal
The source made the active and inactive calls. The calls were made as follows: active = hit-call score of the fitted dose curve at least 0.9, where 1 is the maximum; inactive = score below 0.9.
Would you mind answering with one of these outcomes? yes (1) (active), no (0) (inactive)

Prompt line: Please state the recorded outcome for this compound: CN(C)C(=O)Nc1cccc(C(F)(F)F)c1
Response line: no (0)

Prompt line: What was the test verdict on FC(F)C(F)(F)OCC(Cn1cncn1)c1ccc(Cl)cc1Cl (configuration not stated) ?
Response line: yes (1)

Prompt line: How did this test come out for CC(C)N(C(=O)SCC(Cl)=C(Cl)Cl)C(C)C ?
Response line: no (0)

Prompt line: How was CCCSP(=O)(OCC)SCCC classified in this test?
Response line: no (0)

Prompt line: Each compound tested received a call. Report the one for CN(C)[C@@H]1C(=O)C(C(N)=O)=C(O)[C@@]2(O)C(=O)C3=C(O)c4c(O)cccc4[C@@](C)(O)[C@H]3[C@H](O)[C@@H]12 .
Response line: no (0)

Prompt line: Short answer needed: outcome of this test for COc1ccc(C(=CC(=O)N2CCOCC2)c2ccc(Cl)cc2)cc1OC ?
Response line: no (0)

Prompt line: For this compound, state the assay outcome: CCCCN(CC)c1c([N+](=O)[O-])cc(C(F)(F)F)cc1[N+](=O)[O-]
Response line: no (0)

Prompt line: Tell me the recorded outcome of this test for CCNc1nc(Cl)nc(NC(C)(C)C#N)n1 .
Response line: no (0)

Prompt line: Would you mind telling me which call this test gave CCOP(=S)(OCC)SCCSCC ?
Response line: no (0)

Prompt line: Could you kindly confirm the outcome this assay logged for CSc1nnc(C(C)(C)C)c(=O)n1N ?
Response line: no (0)

Prompt line: I'd appreciate the recorded outcome for COP(=O)(OC)OC(Br)C(Cl)(Cl)Br (configuration not stated) from this test.
Response line: no (0)

Prompt line: // param item: Cc1cc(C2CC2)nc(Nc2ccccc2)n1 ; yields the recorded call
Response line: no (0)

====

- methodNotes: CCTE_Shafer_MEA_acute_burst_percentage_mean: CCTE's Neural Acute Assay for Percentage of Spikes in a Burst, Shafer Lab (AID 2284017)
Activity calls are given as the source filed them. The calls were made as follows: active = hit-call score of the fitted dose curve at least 0.9, where 1 is the maximum; inactive = score below 0.9.
Respond with a class label; see True = active, False = inactive

Prompt line: Please share the test call associated with CCOP(=S)(OCC)Oc1ccc2c(C)c(Cl)c(=O)oc2c1 .
Response line: True

Prompt line: Any idea what this test logged for CON=C(C(=O)OC)c1ccccc1CON=C(C)c1cccc(C(F)(F)F)c1 ?
Response line: True

Prompt line: Record lookup: outcome of this test for C#CCC1=C(C)C(OC(=O)C2C(C=C(C)C)C2(C)C)CC1=O (centres undefined) ?
Response line: True

Prompt line: // outcome(item) with item = CC(C)=CC1C(C(=O)OCN2C(=O)C3=C(CCCC3)C2=O)C1(C)C (centres undefined)
Response line: True

Prompt line: Identify the outcome logged in this assay for the molecule shown: CCOP(=O)(NC(C)C)Oc1ccc(SC)c(C)c1 (centres undefined)
Response line: True

Prompt line: Called result for O=C(O)c1cc(Oc2ccc(C(F)(F)F)cc2Cl)ccc1[N+](=O)[O-]
Response line: False

Prompt line: What call does the record list for CCCOCC(=Nc1ccc(Cl)cc1C(F)(F)F)n1ccnc1 ?
Response line: True

Prompt line: Given Nc1c(Cl)cc([N+](=O)[O-])cc1Cl , state the outcome it received in this test.
Response line: True

Prompt line: Per the assay record, what outcome was assigned to C=C(C)[C@H]1Cc2c(ccc3c2O[C@@H]2COc4cc(OC)c(OC)cc4[C@@H]2C3=O)O1 ?
Response line: False

Prompt line: What classification did CNC(=O)ON=C(SC)C(=O)N(C)C end up with in this test?
Response line: False

Prompt line: Record request — test call for CCOC(=O)CC(SP(=O)(OC)OC)C(=O)OCC (centres undefined)
Response line: False

Prompt line: State the result this test recorded for COc1cc(OC)nc(Sc2cccc(Cl)c2C(=O)O)n1 .
Response line: False

Prompt line: Recorded test call requested for O=[N+]([O-])c1cc(C(F)(F)F)c(Cl)c([N+](=O)[O-])c1Nc1ncc(C(F)(F)F)cc1Cl
Response line: True

Prompt line: Can you look up the reported call for N#CSCSC#N for me?
Response line: True

Prompt line: Check the results log: what was the call for CN(C)NC(=O)CCC(=O)O ?
Response line: False

Prompt line: GET /call?item= CCc1cnc(C2=NC(C)(C(C)C)C(=O)N2)c(C(=O)O)c1 (centres undefined) returns the recorded outcome of this test.
Response line: False

Prompt line: # lookup: test call for Cc1ccn2nc(S(=O)(=O)Nc3c(F)cccc3F)nc2n1
Response line: False

Prompt line: Record lookup: outcome of this test for CCOP(=S)(Oc1cnc(C(C)(C)C)nc1)OC(C)C (centres undefined) ?
Response line: True

Prompt line: What call does the record list for FC(F)C(F)(F)OCC(Cn1cncn1)c1ccc(Cl)cc1Cl (centres undefined) ?
Response line: False
